# test_protocol: Carbodiimide (EDC)-mediated conjugation of goat anti-rabbit IgG to carboxylated gold nanoparticles in presence of additive, read by lateral flow assay
# run_conditions: pH 5, EDC
attribute_measured: interference in carbodiimide-mediated antibody-gold nanoparticle conjugation reaction

- molecule: "CNCC(=O)O [N-Methylglycine (Sarcosine), N-methylglycine]"
  result: "little or no effect"
- molecule: "NCCC(=O)O"
  result: "little or no effect"
- molecule: "C[N+](C)(C)CC(=O)[O-]"
  result: "little or no effect"

----------
# test_protocol: Carbodiimide (EDC)-mediated conjugation of goat anti-rabbit IgG to carboxylated gold nanoparticles in presence of additive, read by lateral flow assay
# run_conditions: additive 50 mM final, MES pH 5.0, EDC; lateral flow test line signal
attribute_measured: % of Signal (%)
Numeric only. Scale: %

Challenge: # input molecule: `C[C@H](N)C(=O)O` ; wanted: its % of Signal
Response given: 100

----------
# test_protocol: Carbodiimide (EDC)-mediated conjugation of goat anti-rabbit IgG to carboxylated gold nanoparticles in presence of additive, read by lateral flow assay
# run_conditions: additive 50 mM final, MES pH 5.0, EDC; lateral flow test line signal
Mark YES for reported % of Signal of 70% or greater; mark NO for anything smaller.

Worked examples, 5 compounds total:
- compound: "C[N+](C)(C)CC(=O)[O-] [Glycine betaine, N,N,N-trimethylglycine]"
  group_label: "YES"
- compound: "[N-]=[N+]=[N-].[Na+] [0.01% NaN3, sodium azide]"
  group_label: "NO"
- compound: "O=C(O)c1cccnc1 [Nicotinic Acid]"
  group_label: "YES"
- compound: "O=C(O)C(Cl)(Cl)Cl [TCA, trichloroacetic acid]"
  group_label: "NO"
- compound: "CCC(N)C(=O)O (racemic) [DL-2 Aminobutyric Acid]"
  group_label: "YES"

Challenge: Is it the case that O=C(O)CCC(=O)O [Succinic Acid] has % of Signal reaching or exceeding 70%?
Response given: NO

Challenge: Given the entry O=C(O)CNC(CO)(CO)CO [Tricine, N-tris(hydroxymethyl)methylglycine] , answer whether its % of Signal meets or surpasses 70%.
Response given: YES

----------
# test_protocol: Carbodiimide (EDC)-mediated conjugation of goat anti-rabbit IgG to carboxylated gold nanoparticles in presence of additive, read by lateral flow assay
# run_conditions: pH 5, EDC
# Procedure: Molecules were tested initially at pH 5 in EDC-mediated reactions with carboxylated gold particles (InnovaCoat GOLD, Innova Biosciences). Potentially interesting molecules from this screening exercise were further evaluated in NHS ester reactions, isothiocyanate reactions and thiolation reactions involving iminothiolane. All of these reactions are widely used in the antibody conjugation field and all would be expected to suffer from interference in the presence of glycine. […]
attribute_measured: interference in carbodiimide-mediated antibody-gold nanoparticle conjugation reaction

See these solved cases before continuing.
- molecule: "C[C@H](N)C(=O)O [Alanine]"
  result: "little or no effect"
- molecule: "CN(C)CC(=O)O [N,N- Dimethylglycine, N,N-dimethylglycine]"
  result: "little or no effect"
- molecule: "O=C(O)[C@@H]1CCCN1 [Proline]"
  result: "little or no effect"
- molecule: "O=C(O)c1c(O)cc(O)cc1O [2,4,6-Trihydroxy-benzoic Acid, 2,4,6-trihydroxybenzoic acid]"
  result: "severe interference"
- molecule: "O=C(O)CNC(CO)(CO)CO [Tricine, N-tris(hydroxymethyl)methylglycine]"
  result: "little or no effect"
- molecule: "O=C(O)CCC(=O)O [Succinic Acid]"
  result: "severe interference"

Now for the molecule whose interference in carbodiimide-mediated antibody-gold nanoparticle conjugation reaction we want.
Challenge: Consider the molecule shown here: O=C(O)C(Cl)(Cl)Cl [TCA, trichloroacetic acid] What is its recorded interference in carbodiimide-mediated antibody-gold nanoparticle conjugation reaction?
Response given: severe interference
